Measured values drawn from PubChem BioAssay (NCATS) for this set.

system: CP266; assay: qHTS profiling for inhibitors of Plasmodium falciparum proliferation (AID 504749); further: nearly all actives have a fitted effect of over 60% in size; settings: P. falciparum in erythrocytes, SYBR Green DNA, 72 h; series mostly up to 28.7 µM
Records with an inconclusive call do not appear. Active and inactive are the calls of the source. The call rests on the fitted dose curve; in most records, active means well fitted inhibition curve with a large enough effect; inconclusive means small, poorly fitted or top-dose-only effect; inactive means flat fitted curve, though single readings scatter.
Log the outcome using a class from active, inactive

MOLECULE	TESTED ON	CLASS NAME
C=CCN=C=S	CP266	inactive
Clc1ccc(Cl)cc1	CP266	inactive
C[N+]1(C)C2CCC1CC(OC(=O)c1c[nH]c3ccccc13)C2 (stereo not drawn)	CP266	inactive
CC(C)(C)c1cc(O)ccc1O	CP266	inactive
[N-]=[N+]=CC(=O)OCC(N)C(=O)O (stereo not drawn)	CP266	inactive
CCCC(C)(COC(N)=O)COC(=O)NC1CC1 (stereo not drawn)	CP266	inactive
CN1[C@@H]2CC[C@H]1CC(OC1c3ccccc3CCc3ccccc31)C2 (stereo partly drawn)	CP266	inactive
CN1c2ccccc2C(NCCCCCCC(=O)O)c2ccc(Cl)cc2S1(=O)=O (stereo not drawn)	CP266	inactive

[ask] Outcome logged for `Oc1cccc[c]1[Hg][Cl]` in this assay:
[reply] active

[ask] Outcome logged for COC([CH2][Hg])CNC(=O)c1ccccc1OCC(=O)O (stereo not drawn) in this assay:
[reply] inactive

[ask] Outcome logged for CC(=O)OC1CN2CCC1CC2 (stereo not drawn) in this assay:
[reply] inactive

[ask] Outcome logged for `CCOC(=O)c1ccccc1C(=O)OCC` in this assay:
[reply] inactive

[ask] Outcome logged for `CCOc1ccc2c3c1O[C@H]1[C@@H](O)C=C[C@H]4[C@@H](C2)N(C)CC[C@@]341` in this assay:
[reply] inactive
